Biological target: AKT1 (Homo sapiens)
Sequence (P31749 whole entry): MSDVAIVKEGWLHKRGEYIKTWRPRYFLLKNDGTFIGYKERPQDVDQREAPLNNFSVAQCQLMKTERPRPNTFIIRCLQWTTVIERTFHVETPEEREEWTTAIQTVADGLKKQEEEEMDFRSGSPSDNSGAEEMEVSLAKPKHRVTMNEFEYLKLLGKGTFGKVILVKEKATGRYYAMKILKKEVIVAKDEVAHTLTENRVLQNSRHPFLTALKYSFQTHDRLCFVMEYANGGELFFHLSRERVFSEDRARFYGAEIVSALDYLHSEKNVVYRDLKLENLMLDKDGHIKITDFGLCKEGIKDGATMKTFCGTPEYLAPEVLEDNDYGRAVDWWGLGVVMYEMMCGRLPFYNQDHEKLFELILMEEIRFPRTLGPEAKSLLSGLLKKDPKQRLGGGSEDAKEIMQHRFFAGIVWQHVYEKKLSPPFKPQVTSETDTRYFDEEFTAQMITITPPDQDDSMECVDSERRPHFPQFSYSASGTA
Assay: AKT Kinase Assay (IMAP fluorescent polarisation) vs AKT1
Conditions: activated AKT1, FAM Crosstide substrate
Counter-ions that a name gives are not always drawn.
# IC50 per record follows

Previously resolved entries follow.
N#Cc1ccc2oc(-c3ccccc3)c(-c3ccc(C4(N)CCC4)cc3)c(=O)c2c1	1000 to 10000 nM
NC1(c2ccc(-c3c(-c4ccccc4)oc4cc(F)c(F)cc4c3=O)cc2)CCC1	1000 to 10000 nM
NC1(c2ccc(-c3c(-c4ccccc4)oc4ccccc4c3=S)cc2)CCC1 [Example 65, hydrochloride]	1000 to 10000 nM
NC1(c2ccc(-c3c(-c4ccccc4)oc4c(C(=O)O)cccc4c3=O)cc2)CCC1	1000 to 10000 nM

Task: Please report the measured IC50 for CC(C)(C#N)c1ccc(-c2c(-c3ccccc3)oc3c(ccn4c(=O)[nH]nc34)c2=O)cc1 tested on AKT1 (Homo sapiens).
Output: ≤ 1000 nM

Task: Please report the measured IC50 for NC1(c2ccc(-c3c(-c4ccccc4)oc4c(F)cccc4c3=O)cc2)CCC1 tested on AKT1 (Homo sapiens).
Output: ≤ 1000 nM

Task: Please report the measured IC50 for Cn1ncc2c3oc(-c4ccccc4)c(-c4ccc(C5(N)CCC5)cc4)c(=O)c3ccc21 tested on AKT1 (Homo sapiens).
Output: ≤ 1000 nM

Task: Please report the measured IC50 for Cc1c(-c2cccc3c(=O)c(-c4ccc(C5(N)CCC5)cc4)c(-c4ccccc4)oc23)cnn1C [Example 75, hydrochloride] tested on AKT1 (Homo sapiens).
Output: ≤ 1000 nM

---

Target: AKT3 (Homo sapiens)
Sequence (Q9Y243 whole entry): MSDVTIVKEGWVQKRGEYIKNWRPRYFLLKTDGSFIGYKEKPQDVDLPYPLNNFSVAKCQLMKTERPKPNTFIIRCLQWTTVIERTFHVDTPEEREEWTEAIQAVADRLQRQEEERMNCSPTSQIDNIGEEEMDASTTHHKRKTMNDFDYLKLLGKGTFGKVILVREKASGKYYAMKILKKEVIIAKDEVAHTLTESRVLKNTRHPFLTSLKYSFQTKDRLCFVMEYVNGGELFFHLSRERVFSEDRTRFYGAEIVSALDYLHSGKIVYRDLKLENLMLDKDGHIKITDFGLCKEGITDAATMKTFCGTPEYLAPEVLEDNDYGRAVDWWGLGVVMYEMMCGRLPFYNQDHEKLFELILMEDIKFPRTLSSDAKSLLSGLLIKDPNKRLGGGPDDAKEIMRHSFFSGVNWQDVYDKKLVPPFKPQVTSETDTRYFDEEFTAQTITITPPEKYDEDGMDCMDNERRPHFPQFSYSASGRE
Experiment: AKT Kinase Assay (IMAP fluorescent polarisation) vs AKT3
Conditions: activated AKT3, FAM Crosstide substrate
Structures can show the parent of a compound that is named as a salt.
observation-type: IC50

Previously resolved entries follow.
COc1ccccc1-c1nccc2c(=O)c(-c3ccc(C4(N)CCC4)cc3)c(-c3ccccc3)oc12	1 to 10 µM
NC1(c2ccc(-c3c(-c4ccccc4)oc4c(ccc5cn(CCO)nc54)c3=O)cc2)CCC1 [Example 86, hydrochloride]	1 to 10 µM
Cn1ncc2c3oc(-c4ccccc4)c(-c4ccc(C5(N)CCC5)cc4)c(=O)c3ccc21	1 to 10 µM

Task: Consider the compound Cn1cc(-c2nccc3c(=O)c(-c4ccc(C5(N)CCC5)cc4)c(-c4ccccc4)oc23)cn1 [Example 101, hydrochloride] and give its recorded IC50.
Output: ≤ 1 µM

Task: Consider the compound COc1cccc2c(=O)c(-c3ccc(C4(N)CCC4)cc3)c(-c3ccccc3)oc12 and give its recorded IC50.
Output: 1 to 10 µM

Task: Consider the compound COc1ccc2c(=O)c(-c3ccc(C4(N)CCC4)cc3)c(-c3ccccc3)oc2n1 [Example 35, hydrochloride] and give its recorded IC50.
Output: 1 to 10 µM

Task: Consider the compound NC1(c2ccc(-c3c(-c4ccccc4)oc4ncccc4c3=O)cc2)CCC1 and give its recorded IC50.
Output: > 10 µM

---

# IC50 per record follows
Target: AKT3 (Homo sapiens)
Assay: AKT Kinase Assay (IMAP fluorescent polarisation) vs AKT3
Settings: activated AKT3, FAM Crosstide substrate
Counter-ions that a name gives are not always drawn.

CN1C(=O)COc2c1ccc1c(=O)c(-c3ccc(C4(N)CCC4)cc3)c(-c3ccccc3)oc21	1 to 10 µM
COc1ccc2oc(-c3ccccc3)c(-c3ccc(C4(N)CCC4)cc3)c(=O)c2c1	> 10 µM
Cn1ncc2ccc3c(=O)c(-c4ccc(C5(N)CCC5)nc4)c(-c4ccccc4)oc3c21 [Example 71, hydrochloride]	> 10 µM

Task: Please report the measured IC50 for CN1CCN(c2ccc3oc(-c4ccccc4)c(-c4ccc(C5(N)CCC5)cc4)c(=O)c3c2)CC1 tested on AKT3 (Homo sapiens).
Output: > 10 µM

Task: Please report the measured IC50 for NC1(c2ccc(-c3c(-c4ccccc4)oc4c(Cl)nccc4c3=O)cc2)CCC1 [Example 42, hydrochloride] tested on AKT3 (Homo sapiens).
Output: 1 to 10 µM

Task: Please report the measured IC50 for Cn1cnc2c3oc(-c4ccccc4)c(-c4ccc(C5(N)CCC5)cc4)c(=O)c3cc(Cl)c21 [Example 62, hydrochloride] tested on AKT3 (Homo sapiens).
Output: ≤ 1 µM

Task: Please report the measured IC50 for Nc1cc2oc(-c3ccccc3)c(-c3ccc(C4(N)CCC4)cc3)c(=O)c2cc1Br [Example 49, TFA] tested on AKT3 (Homo sapiens).
Output: > 10 µM

Task: Please report the measured IC50 for CS(=O)(=O)c1ccccc1-c1nccc2c(=O)c(-c3ccc(C4(N)CCC4)cc3)c(-c3ccccc3)oc12 tested on AKT3 (Homo sapiens).
Output: > 10 µM

Task: Please report the measured IC50 for NC1(c2ccc(-c3c(-c4ccccc4)oc4c(-c5ccccc5)nccc4c3=O)cc2)CCC1 tested on AKT3 (Homo sapiens).
Output: 1 to 10 µM
